Measured values drawn from patent US20220370453A1 for this set.

- measured.on: BCDIN3D (Homo sapiens)
- test.protocol: BCDIN3D InCellPulse thermal stability assay in transfected A549 cells
- Assay type: cell-based
- run.conditions: transiently transfected A549 cells, heat shock 58° C. 15 min
Can you tell me IC50 for the items I'm about to list?

Recorded results for 7 molecules are shown here.
Cn1ncc2c(NC(C3CC3)C3CC3)nc(NCC(N)c3ccccc3)nc21 (centres unmarked) [Compound 4.57] :: 2720 nM
C[C@@H](Nc1nc(NC[C@H](N)c2ccccc2)nc2c1cnn2C)C1CC1 [Compound 4.129] :: 290 nM
CCn1ncc2c(Nc3ccc(C(F)(F)F)cc3)nc(NCC3(N)CC3)nc21 [Compound 2.48] :: 2430 nM
Cn1ncc2c(Nc3ccc(OC(F)F)cc3)nc(NCC(C)(N)c3ccccc3)nc21 (centres unmarked) [Compound 4.15] :: 295 nM
Cn1ncc2c(NC3(C)CC(F)(F)C3)nc(NC[C@H](N)c3ccccc3)nc21 [Compound 4.86] :: 1450 nM
CCC(C)(C)Nc1nc(NC[C@H](N)c2ccccc2)nc2c1cnn2C [Compound 4.101] :: 330 nM
Cn1ncc2c(NC3CC(F)C3)nc(NC[C@H](N)c3ccccc3)nc21 (some centres unmarked) [Compound 4.88] :: 148 nM

Now turn to the next molecule.
*Q* Give IC50 for the following molecule: Cn1ncc2c(Nc3ccc(C(F)(F)F)cc3)nc(NC[C@H](N)c3ccccc3)nc21 [Compound 4.22]
*A* 29.9 nM

###

- measured.on: BCDIN3D (Homo sapiens, UniProt Q7Z5W3)
- Sequence (Q7Z5W3 whole entry): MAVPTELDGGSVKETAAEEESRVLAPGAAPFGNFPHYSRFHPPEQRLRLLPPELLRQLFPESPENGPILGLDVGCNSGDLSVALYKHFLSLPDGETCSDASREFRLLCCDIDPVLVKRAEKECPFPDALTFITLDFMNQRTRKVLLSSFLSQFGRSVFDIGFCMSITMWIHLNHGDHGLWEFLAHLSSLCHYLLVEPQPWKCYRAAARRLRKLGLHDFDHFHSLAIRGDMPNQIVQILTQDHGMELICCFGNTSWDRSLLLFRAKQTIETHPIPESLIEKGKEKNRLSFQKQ
- test.protocol: BCDIN3D InCellPulse thermal stability assay in transfected A549 cells
- Type: cell-based
- run.conditions: transiently transfected A549 cells, heat shock 58° C. 15 min
- Experimental: BCDIN3D InCellPulse™ Assay The thermal stability assay was performed with lipofectamine 3000 transiently transfected A549 using the plasmid pICP-ePL-BCDIN3 Da. This plasmid encodes for BCDIN3D N-terminally fused to a Prolabel (ePL), complementing a split β-Galactosidase Enzyme System InCELL Pulse Technology (InCELL Hunter Detection Kit, DiscoverX/Eurofins, cat: 96-0079L). […] Finally, the luminescence was measured with a Perkin Elmer EnVision with 0.2 s measurement time in luminescence mode.
measured.attribute: IC50 (nM)
Give bare numbers, in nM.

Recorded results for 5 molecules are shown here.
CN(C)c1ccc(Nc2nc(NC[C@H](N)c3ccccc3)nc3c2cnn3C)cc1 [Compound 4.35] :: 141
Cn1ncc2c(NC(C)(C)C)nc(NCC(N)c3ccc(C4CC4)cc3)nc21 (stereo not drawn) [Compound 5.33] :: 150
Cn1ncc2c(NC3(C(F)(F)F)CC3)nc(NC[C@H](N)c3ccccc3)nc21 [Compound 4.78] :: 379
[2H]C([2H])([2H])n1ncc2c(NC)nc(NCC(N)c3ccccc3)nc21 (stereo not drawn) [Compound 4.38] :: 9560
Cc1ccc(CNc2nc(NCC(N)c3ccccc3F)nc3c2cnn3C)cc1Cl (stereo not drawn) [Compound 5.12] :: 643

List reported IC50 for each of these molecules:
1. Cn1ncc2c(NC(C)(C)C)nc(NCC(N)c3ccncc3)nc21 (stereo not drawn) [Compound 5.26]
2. Cn1ncc2c(Nc3cccc(F)c3)nc(NCC3(N)CC3)nc21 [Compound 2.29]
3. CC(C)Nc1nc(NC[C@H](N)c2cccc(Br)c2)nc2c1cnn2C [Compound 5.15]
4. CC(C)Cc1nc(NCC(N)c2ccccc2)nc2c1cnn2C (stereo not drawn) [Compound 4.130]
5. Cn1ncc2c(Nc3ccc(C(F)(F)F)cc3)nc(NCC(N)C3CC3)nc21 (stereo not drawn) [Compound 3.13]

*A*
[5570, 3000, 47.1, 11200, 510]

List reported IC50 for each of these molecules:
1. Cn1ncc2c(Nc3cc(F)c(Cl)c(F)c3)nc(NCC3(N)CC3)nc21 [Compound 2.20]
2. Cn1ncc2c(Nc3ccc(C(F)(F)F)cc3)nc(NCC(N)CF)nc21 (stereo not drawn) [Compound 3.26]

*A*
1. 887
2. 4030

List reported IC50 for each of these molecules:
1. Cn1ncc2c(NC3CC4(CC4)C3)nc(NC[C@H](N)c3ccccc3)nc21 [Compound 4.119]
2. Cn1ncc2c(Nc3cccc(C(F)F)c3)nc(NCC3(N)CC3)nc21 [Compound 2.07]
3. Cn1ncc2c(Nc3ccc(F)cc3)nc(NCC(N)c3ccccc3)nc21 (stereo not drawn) [Compound 4.10]
4. CC(C)Nc1nc(NC[C@H](N)c2ccccc2)nc2c1cnn2C [Compound 4.47]

*A*
27
4100
323
667

List reported IC50 for each of these molecules:
1. Cn1ncc2c(Nc3ccc(C(F)(F)F)cc3)nc(NCC(C)(N)c3ccccc3)nc21 (stereo not drawn) [Compound 4.19]
2. Cn1ncc2c(Nc3ccc(F)c(F)c3)nc(NC[C@H](N)c3ccccc3)nc21 [Compound 4.34]

*A*
86.4
162
